These measurements were taken from the supplement of paper PMC9694430.

# System: LOC_OS03G27990-cb004
# protocol-notes: thermal shift delta Tm vs DMSO control; higher = stronger stabilization (binding);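 note: purified Escherichia coli-expressed rice kinase domain construct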
# study-conditions: 12.5 µM; protein concentration 2 µM
Would you mind telling me the reported thermal shift delta Tm of each entry?
Entry rule: numbers only, all in °C.

Give thermal shift delta Tm for the following compound: COc1cc(Nc2ncc(F)c(Nc3ccc4c(n3)N(COP(=O)(O)O)C(=O)C(C)(C)O4)n2)cc(OC)c1OC [Fostamatinib (R788)]
2.16

Give thermal shift delta Tm for the following compound: `CC(C)(C)S(=O)(=O)c1ccc2nccc(Nc3n[nH]c4ccc(F)cc34)c2c1`
0.12

Give thermal shift delta Tm for the following compound: `Cc1c(Cn2c(C)nc3c(C(=O)O)cc(N4CCOCC4)cc32)cccc1C(F)(F)F`
0.07

Give thermal shift delta Tm for the following compound: `O=C(NCCCNc1nc(Nc2cccc(NC(=O)N3CCCC3)c2)ncc1I)c1cccs1`
0.57

Give thermal shift delta Tm for the following compound: `COc1cc(N2CCN(C)CC2)ccc1Nc1nccc(-c2cn(C)c3cnccc23)n1`
0.05

Give thermal shift delta Tm for the following compound: `CCC(=O)Nc1cccc(Oc2nc(Nc3ccc(N4CCN(C)CC4)cc3OC)ncc2Cl)c1`
0.56

Give thermal shift delta Tm for the following compound: `Cc1cnc(NC(=O)Nc2cc(Br)c(C)cc2OC[C@@H]2CNCCO2)cn1`
0.74

Give thermal shift delta Tm for the following compound: `CN(C)C[C@@H]1CCn2cc(c3ccccc32)C2=C(C(=O)NC2=O)c2cn(c3ccccc23)CCO1`
0.5

Give thermal shift delta Tm for the following compound: `Cc1ncc(CO)c(CO)c1O`
0.25

Give thermal shift delta Tm for the following compound: `COc1ccc(F)c(F)c1C(=O)c1cnc(NC2CCN(S(C)(=O)=O)CC2)nc1N`
0.19

Give thermal shift delta Tm for the following compound: `CCn1c(-c2nonc2N)nc2c(C#CC(C)(C)O)ncc(OC[C@H]3CCCNC3)c21`
0.32

Give thermal shift delta Tm for the following compound: C[S+]([O-])c1ccc(-c2nc(-c3ccc(F)cc3)c(-c3ccncc3)[nH]2)cc1 (stereo not drawn)
0.58

Give thermal shift delta Tm for the following compound: COc1cc2nccc(Oc3ccc(NC(=O)C4(C(=O)Nc5ccc(F)cc5)CC4)cc3)c2cc1OC [Cabozantinib malate (XL184)]
0.34

* * *

# System: LOC_OS05G28520-cb001
# protocol-notes: thermal shift delta Tm vs DMSO control; higher = stronger stabilization (binding)
# study-conditions: 12.5 µM; protein concentration 2 µM
Where a name gives a salt, the structure may show the parent alone.
Mark condition not met for thermal shift delta Tm values under 0.6 °C, and condition met for everything at or above.

Decide: is the reported value of thermal shift delta Tm for `CN(C[C@@H]1COCCO1)S(=O)(=O)Nc1ccc2ccc3ncc(-c4cnn(C)c4)cc3c(=O)c2c1` equal to or greater than 0.6 °C?
condition met

Decide: is the reported value of thermal shift delta Tm for CN1CC[C@H](c2c(O)cc(O)c3c(=O)cc(-c4ccccc4Cl)oc23)[C@H](O)C1 [Flavopiridol HCl] equal to or greater than 0.6 °C?
condition not met

Decide: is the reported value of thermal shift delta Tm for `Cc1cnc(Nc2ccc(OCCN3CCCC3)cc2)nc1Nc1cccc(S(=O)(=O)NC(C)(C)C)c1` equal to or greater than 0.6 °C?
condition met

Decide: is the reported value of thermal shift delta Tm for `CC(C)(O)CNc1ncc(-c2ccnc(Nc3ccncc3)n2)c(CC2CC2)n1` equal to or greater than 0.6 °C?
condition not met
